Data provenance is patent USRE47150.

Biological target: T1, human tissue factor pathway inhibitor (TFPI) (human, UniProt P10646 29-304, limits assumed)
T1 construct: bought; also called hTFPI; human TFPI
T1 sequence (looked up): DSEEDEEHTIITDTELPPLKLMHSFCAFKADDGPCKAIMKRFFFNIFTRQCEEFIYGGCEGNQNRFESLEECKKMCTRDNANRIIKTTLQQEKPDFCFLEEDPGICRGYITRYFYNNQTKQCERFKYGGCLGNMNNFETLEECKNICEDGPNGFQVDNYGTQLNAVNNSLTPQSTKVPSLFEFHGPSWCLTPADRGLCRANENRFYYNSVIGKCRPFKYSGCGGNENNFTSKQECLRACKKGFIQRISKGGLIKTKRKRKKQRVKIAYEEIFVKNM
Assay: competitive ELISA
measurement-name: variant/wild-type (ratio)
Number only, in ratio; omit the unit.

Solved entries:
{"binder": "2A8 LC_N52G (Fab, V domains shown) VH: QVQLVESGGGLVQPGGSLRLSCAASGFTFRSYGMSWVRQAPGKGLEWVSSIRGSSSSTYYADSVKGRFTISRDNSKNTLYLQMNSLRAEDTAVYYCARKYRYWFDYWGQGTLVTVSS VL: DIELTQPPSVSVAPGQTARISCSGDNLRNYYAHWYQQKPGQAPVVVIYYDNGRPSGIPERFSGSNSGNTATLTISGTQAEDEADYYCQSWDDGVPVFGGGTKLTVLG", "measurement-units": "ratio", "endpoint-result": 3.4}
{"binder": "2A8 HC_G33P (Fab, V domains shown, also called 2A8-1) VH: QVQLVESGGGLVQPGGSLRLSCAASGFTFRSYPMSWVRQAPGKGLEWVSSIRGSSSSTYYADSVKGRFTISRDNSKNTLYLQMNSLRAEDTAVYYCARKYRYWFDYWGQGTLVTVSS VL: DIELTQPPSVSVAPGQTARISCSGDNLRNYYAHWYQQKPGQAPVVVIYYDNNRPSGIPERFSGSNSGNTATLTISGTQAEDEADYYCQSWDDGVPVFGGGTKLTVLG", "measurement-units": "ratio", "endpoint-result": 5.1}
{"binder": "2A8 LC_V96G (Fab, V domains shown) VH: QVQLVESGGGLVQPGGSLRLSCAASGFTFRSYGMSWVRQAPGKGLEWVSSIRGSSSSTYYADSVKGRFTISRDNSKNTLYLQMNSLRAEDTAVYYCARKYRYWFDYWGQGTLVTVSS VL: DIELTQPPSVSVAPGQTARISCSGDNLRNYYAHWYQQKPGQAPVVVIYYDNNRPSGIPERFSGSNSGNTATLTISGTQAEDEADYYCQSWDDGVPGFGGGTKLTVLG", "measurement-units": "ratio", "endpoint-result": 3.2}
{"binder": "2A8 HC_K99V (Fab, V domains shown, also called 2A8-10) VH: QVQLVESGGGLVQPGGSLRLSCAASGFTFRSYGMSWVRQAPGKGLEWVSSIRGSSSSTYYADSVKGRFTISRDNSKNTLYLQMNSLRAEDTAVYYCARVYRYWFDYWGQGTLVTVSS VL: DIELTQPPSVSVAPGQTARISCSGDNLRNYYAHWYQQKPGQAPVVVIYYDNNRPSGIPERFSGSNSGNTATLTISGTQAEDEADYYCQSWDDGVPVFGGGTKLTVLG", "measurement-units": "ratio", "endpoint-result": 7.5}
{"binder": "2A8 LC_D92T (Fab, V domains shown) VH: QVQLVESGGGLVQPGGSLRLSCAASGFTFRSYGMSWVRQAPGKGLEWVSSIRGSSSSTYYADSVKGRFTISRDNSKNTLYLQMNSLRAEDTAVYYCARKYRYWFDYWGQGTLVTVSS VL: DIELTQPPSVSVAPGQTARISCSGDNLRNYYAHWYQQKPGQAPVVVIYYDNNRPSGIPERFSGSNSGNTATLTISGTQAEDEADYYCQSWDTGVPVFGGGTKLTVLG", "measurement-units": "ratio", "endpoint-result": 2.6}
{"binder": "2A8 HC_I51E (Fab, V domains shown, also called 2A8-6) VH: QVQLVESGGGLVQPGGSLRLSCAASGFTFRSYGMSWVRQAPGKGLEWVSSERGSSSSTYYADSVKGRFTISRDNSKNTLYLQMNSLRAEDTAVYYCARKYRYWFDYWGQGTLVTVSS VL: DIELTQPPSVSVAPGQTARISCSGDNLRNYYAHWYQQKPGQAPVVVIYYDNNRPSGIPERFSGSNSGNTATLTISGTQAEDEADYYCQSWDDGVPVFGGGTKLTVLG", "measurement-units": "ratio", "endpoint-result": 7.3}
{"binder": "2A8 LC_N51V (Fab, V domains shown, also called 2A8-13) VH: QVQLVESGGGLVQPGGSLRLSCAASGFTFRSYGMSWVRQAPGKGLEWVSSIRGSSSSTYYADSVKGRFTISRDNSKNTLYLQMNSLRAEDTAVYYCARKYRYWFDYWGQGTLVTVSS VL: DIELTQPPSVSVAPGQTARISCSGDNLRNYYAHWYQQKPGQAPVVVIYYDVNRPSGIPERFSGSNSGNTATLTISGTQAEDEADYYCQSWDDGVPVFGGGTKLTVLG", "measurement-units": "ratio", "endpoint-result": 4.4}
{"binder": "2A8 HC_S35L (Fab, V domains shown) VH: QVQLVESGGGLVQPGGSLRLSCAASGFTFRSYGMLWVRQAPGKGLEWVSSIRGSSSSTYYADSVKGRFTISRDNSKNTLYLQMNSLRAEDTAVYYCARKYRYWFDYWGQGTLVTVSS VL: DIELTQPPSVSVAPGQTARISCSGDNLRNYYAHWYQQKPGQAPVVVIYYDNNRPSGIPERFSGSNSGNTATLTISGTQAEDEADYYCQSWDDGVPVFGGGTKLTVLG", "measurement-units": "ratio", "endpoint-result": 1.7}

Note: attention shifts to another entry.
What variant/wild-type value was documented for this binder, 2A8 HC_S54D (Fab, V domains shown) VH: QVQLVESGGGLVQPGGSLRLSCAASGFTFRSYGMSWVRQAPGKGLEWVSSIRGDSSSTYYADSVKGRFTISRDNSKNTLYLQMNSLRAEDTAVYYCARKYRYWFDYWGQGTLVTVSS VL: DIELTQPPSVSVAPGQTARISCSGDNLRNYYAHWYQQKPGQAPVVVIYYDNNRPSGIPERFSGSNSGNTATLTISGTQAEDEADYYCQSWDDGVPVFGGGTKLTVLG ? 1.7
